- Test system: AGS
- procedure details: Cytotoxicity against human AGS cells assessed as growth inhibition after 48 hrs by MTT assay
- Format: functional, cell-based

| mol | IC50 [µM] |
| --- | --- |
| CCSc1nc(-c2ccc(OC)c(OC)c2)c(-c2ccc(OC)c(OC)c2)[nH]1 | 33.6 |
| COc1ccc(-c2[nH]c(SC)nc2-c2cc(OC)c(OC)c(OC)c2)c(OC)c1 | 23.2 |
| COc1ccc(-c2[nH]c(SC)nc2-c2cc(OC)c(OC)c(OC)c2)cc1 | 0.06 |

----------
- Test system: AGS
- procedure details: Cytotoxicity against human AGS cells assessed as growth inhibition after 48 hrs by MTT assay
- Type: functional, cell-based
pIC50: −log10 of the molar value.
recorded metric: pIC50

| mol | recorded metric | value measured |
| --- | --- | --- |
| CCSc1nc(-c2cc(OC)c(OC)c(OC)c2)c(-c2ccc(OC)cc2)[nH]1 | pIC50 | 7.15 |
| COc1cc(-c2nc(SC)[nH]c2-c2cccc(OC)c2OC)cc(OC)c1OC | pIC50 | 4.45 |
| CCSc1nc(-c2cc(OC)c(OC)c(OC)c2)c(-c2ccccc2OC)[nH]1 | pIC50 | 4.39 |
| COc1ccccc1-c1[nH]c(SC)nc1-c1cc(OC)c(OC)c(OC)c1 | pIC50 | 4.31 |
| COc1ccc(-c2nc(SC)[nH]c2-c2ccc(OC)c(OC)c2)cc1OC | pIC50 | 4.46 |

Sourced from ChEMBL document CHEMBL2380229
